Target: hKv3.1 (Homo sapiens)
Construct: expressed in transfected cells
Sequence (P48547 whole entry): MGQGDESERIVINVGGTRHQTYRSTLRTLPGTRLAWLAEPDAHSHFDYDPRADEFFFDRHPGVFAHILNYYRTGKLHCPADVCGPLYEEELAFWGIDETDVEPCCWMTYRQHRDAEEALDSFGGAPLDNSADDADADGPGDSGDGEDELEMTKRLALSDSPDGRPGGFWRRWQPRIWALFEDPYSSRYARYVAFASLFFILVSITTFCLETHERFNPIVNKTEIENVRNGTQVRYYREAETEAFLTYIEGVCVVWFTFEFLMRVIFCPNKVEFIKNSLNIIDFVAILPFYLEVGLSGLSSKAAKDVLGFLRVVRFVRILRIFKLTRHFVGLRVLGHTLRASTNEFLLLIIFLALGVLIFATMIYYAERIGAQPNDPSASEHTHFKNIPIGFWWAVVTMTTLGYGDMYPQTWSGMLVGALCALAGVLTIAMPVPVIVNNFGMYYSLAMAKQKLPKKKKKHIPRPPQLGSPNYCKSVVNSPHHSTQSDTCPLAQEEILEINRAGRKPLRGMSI
Test: Automated patch clamp (Patchliner) whole-cell electrophysiology, Kv3.1
Type: cell-based
Settings: 10 μM compound; % potentiation of peak current at −10 mV voltage step vs vehicle; CHO-K1 cells stably expressing hKv3.1
reported-endpoint: Kv3.1 Activity at 10 μM Potentiation (%)

Here is how some compounds turned out for Kv3.1 Activity at 10 μM Potentiation (%).
> print(dat)
                         chemical.structure  observed.value
1  CC[C@H]1NC(=O)N(c2cc(Oc3ccc4ccccc4c3)ccn2)C1=O              25
2  CC[C@@]1(C)NC(=O)N(c2cccc(Oc3ccc(C)c(C)c3)n2)C1=O              22
3  CC[C@@]1(C)NC(=O)N(c2cccc(Oc3ccc4c(c3)OCCC4)n2)C1=O              15
4  CC[C@@]1(C)NC(=O)N(c2cccc(Oc3ccc4c(c3)CCC4)n2)C1=O              46
5  COc1cc(Oc2cccc(N3C(=O)NC(C)(C)C3=O)n2)ccc1C              26
6  CC1(C)NC(=O)N(c2ccnc(Oc3ccc4c(c3)CCC4)c2)C1=O              58
7  COc1cc(Oc2cc(N3C(=O)NC(C)(C)C3=O)ccn2)ccc1Cl              32
8  CC[C@H]1NC(=O)N(c2cc(Oc3ccc(C)c(OC)c3)ccn2)C1=O              67

P = CC[C@@]1(C)NC(=O)N(c2cncc(Oc3ccc(C)c(OC)c3)c2)C1=O
Q = CC[C@H]1NC(=O)N(c2ccnc(Oc3ccc(C)c(OC)c3)c2)C1=O
R = O=C1NC2(CCCC2)C(=O)N1c1ccnc(Oc2ccc3c(c2)OC(F)(F)O3)c1F
S = CC[C@H]1NC(=O)N(c2cccc(Oc3cccc(C)c3OC)n2)C1=O
T = CC[C@@]1(C)NC(=O)N(c2cccc(Oc3ccc(F)c(C)c3)n2)C1=O
query: Reorder: Kv3.1 Activity at 10 μM Potentiation (%), max to min. Enter labels, ranked according to the request.
result: R, P, T, Q, S
(R: 227%, P: 78%, T: 51%, Q: 30%, S: 19%)

P = COc1cc(Oc2cncc(N3C(=O)NC(C)(C)C3=O)c2)ccc1C
Q = CC1(C)NC(=O)N(c2ccnc(Oc3ccc4c(c3)OC(F)(F)O4)c2)C1=O
query: Please choose the item with the lower Kv3.1 Activity at 10 μM Potentiation (%) value from this pair: P and Q Write down the label of the entry you select.
result: P
(P: 25%, Q: 80%)

a = O=C1NC2(CCC2)C(=O)N1c1ccnc(Oc2ccc3c(c2)OC(F)(F)O3)c1
b = CC1(C)NC(=O)N(c2ccc(F)c(Oc3ccc4c(c3)OC(F)(F)O4)n2)C1=O
query: When their Kv3.1 Activity at 10 μM Potentiation (%) values are compared, which is larger, a or b ? Write down the label of the entry you select.
result: a
(a: 90%, b: 30%)

* * *

Biological target: hKv3.2 (Homo sapiens, UniProt Q96PR1)
Construct: expressed in transfected cells
Sequence (Q96PR1 1-638): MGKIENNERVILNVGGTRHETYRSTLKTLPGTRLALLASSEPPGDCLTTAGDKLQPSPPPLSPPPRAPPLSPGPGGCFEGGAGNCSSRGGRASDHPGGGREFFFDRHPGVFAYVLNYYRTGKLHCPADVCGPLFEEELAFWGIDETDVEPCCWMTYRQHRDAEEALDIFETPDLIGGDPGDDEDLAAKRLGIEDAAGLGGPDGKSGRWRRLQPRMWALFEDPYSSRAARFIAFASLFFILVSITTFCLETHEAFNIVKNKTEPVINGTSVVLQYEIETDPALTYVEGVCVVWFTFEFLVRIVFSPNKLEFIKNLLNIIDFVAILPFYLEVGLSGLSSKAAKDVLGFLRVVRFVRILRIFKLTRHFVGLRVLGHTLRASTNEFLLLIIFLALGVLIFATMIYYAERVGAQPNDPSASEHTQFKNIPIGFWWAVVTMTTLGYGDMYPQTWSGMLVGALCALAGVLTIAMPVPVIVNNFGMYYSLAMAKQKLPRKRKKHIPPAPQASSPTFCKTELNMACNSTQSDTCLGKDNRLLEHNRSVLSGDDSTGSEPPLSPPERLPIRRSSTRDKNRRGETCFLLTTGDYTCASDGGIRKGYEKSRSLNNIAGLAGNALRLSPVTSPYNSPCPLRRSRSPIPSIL
Assay: Automated patch clamp (Patchliner) whole-cell electrophysiology, Kv3.2
Format: cell-based
Conditions: 10 μM compound; voltage shift of the IV curve at V1/2; CHO-K1 cells stably expressing hKv3.2
reported-endpoint: Kv3.2 Activity at 10 μM Voltage Shift (mV)

Here is how some compounds turned out for Kv3.2 Activity at 10 μM Voltage Shift (mV).
> print(dat)
                                   compound                    experimental.system  observed.value
1  COc1cc(Oc2cc(N3C(=O)NC4(CCCCC4)C3=O)ccn2)ccc1C [Example 24]  hKv3.2 (Homo sapiens, UniProt Q96PR1)           −5.52
2  CC[C@@]1(C)NC(=O)N(c2ccc(F)c(Oc3ccc(C)c(OC)c3)n2)C1=O [Example 89]  hKv3.2 (Homo sapiens, UniProt Q96PR1)           −2.58
3  CC[C@@]1(C)NC(=O)N(c2cc(Oc3ccc(C)c(OC)c3)ccn2)C1=O [Example 45]  hKv3.2 (Homo sapiens, UniProt Q96PR1)           −6.69
4  COc1cc(Oc2cc(N3C(=O)NC4(CCN(C)CC4)C3=O)ccn2)ccc1C [Example 30]  hKv3.2 (Homo sapiens, UniProt Q96PR1)            2.06

A = COc1cc(Oc2cc(N3C(=O)NC(C)(C)C3=O)ccn2)ccc1F [Example 6]
B = COc1cc(Oc2cc(N3C(=O)NC(C)(C)C3=O)ccn2)ccc1C [Example 1]
C = O=C1NC2(CCCC2)C(=O)N1c1ccnc(Oc2ccc3c(c2)OC(F)(F)O3)c1 [Example 36]
query: Could you please order the items by Kv3.2 Activity at 10 μM Voltage Shift (mV), going from the lowest number to the highest? Enter labels, ranked according to the request.
result: C, A, B
(C: −4.8 mV, A: −3.18 mV, B: −1.23 mV)

a = CC1(C)NC(=O)N(c2ccnc(Oc3ccc4c(c3)OC(F)(F)O4)c2)C1=O [Example 9]
b = CC[C@@]1(C)NC(=O)N(c2cccc(Oc3ccc(C)c(OC)c3)n2)C1=O [Example 58]
query: When their Kv3.2 Activity at 10 μM Voltage Shift (mV) values are compared, which is larger, a or b ? Write down the label of the entry you select.
result: b

I = COc1cc(Oc2nccc(N3C(=O)NC4(CCCCC4)C3=O)c2F)ccc1C [Example 91]
II = O=C1NC2(CCC2)C(=O)N1c1ccnc(Oc2ccc3c(c2)OC(F)(F)O3)c1 [Example 37]
III = COc1cc(Oc2cccc(N3C(=O)NC4(CCCCC4)C3=O)n2)ccc1C [Example 75]
IV = COc1cc(Oc2cc(N3C(=O)NC(C)(C)C3=O)ccn2)ccc1Cl [Example 8]
query: Could you please order the items by Kv3.2 Activity at 10 μM Voltage Shift (mV), going from the lowest number to the highest? Enter labels, ranked according to the request.
result: I, II, IV, III

A = COc1cc(Oc2cncc(N3C(=O)NC(C)(C)C3=O)c2)ccc1C [Example 39]
B = O=C1NC2(CCCCC2)C(=O)N1c1ccnc(Oc2ccc3c(c2)OC(F)(F)O3)c1F [Example 93]
C = CC[C@@]1(C)NC(=O)N(c2cccc(Oc3cc(OC)cc(OC)c3)n2)C1=O [Example 70]
D = CC1(C)NC(=O)N(c2ccc(F)c(Oc3ccc4c(c3)OC(F)(F)O4)n2)C1=O [Example 84]
query: Could you please order the items by Kv3.2 Activity at 10 μM Voltage Shift (mV), going from the lowest number to the highest? Enter labels, ranked according to the request.
result: B, A, C, D
(B: −6.55 mV, A: −3.78 mV, C: −2.42 mV, D: −1.69 mV)

I = CC[C@@]1(C)NC(=O)N(c2ccnc(Oc3ccc(C)c(OC)c3)c2)C1=O [Example 10]
II = CC1(C)NC(=O)N(c2ccnc(Oc3ccc4c(c3)CCC4)c2)C1=O [Example 3]
query: Please choose the item with the lower Kv3.2 Activity at 10 μM Voltage Shift (mV) value from this pair: I and II Write down the label of the entry you select.
result: II
(II: −6.71 mV, I: −2.67 mV)

P = COc1cc(Oc2cc(N3C(=O)NC(C)(C)C3=O)ccn2)ccc1C(F)(F)F [Example 4]
Q = COc1cc(Oc2nccc(N3C(=O)NC4(CCCC4)C3=O)c2F)ccc1C [Example 90]
R = COc1cc(Oc2cc(N3C(=O)NC4(CCCC4)C3=O)ccn2)ccc1C [Example 33]
query: Could you please order the items by Kv3.2 Activity at 10 μM Voltage Shift (mV), going from the lowest number to the highest? Enter labels, ranked according to the request.
result: Q, P, R
(Q: −7.43 mV, P: −4.12 mV, R: −2.72 mV)

1 = CC[C@@]1(C)NC(=O)N(c2ccnc(Oc3ccc4c(c3)CCC4)c2)C1=O [Example 13]
2 = COc1cc(Oc2ccnc(N3C(=O)NC(C)(C)C3=O)c2)ccc1C [Example 44]
3 = COc1cc(Oc2cc(N3C(=O)NC4(CCC4)C3=O)ccn2)ccc1C [Example 34]
query: Could you please order the items by Kv3.2 Activity at 10 μM Voltage Shift (mV), going from the lowest number to the highest? Enter labels, ranked according to the request.
result: 1, 2, 3
(1: −4.48 mV, 2: −2.81 mV, 3: −1.25 mV)

P = CC[C@H]1NC(=O)N(c2cccc(Oc3ccc(C)c(OC)c3)n2)C1=O [Example 48]
Q = CC[C@@]1(C)NC(=O)N(c2ccnc(Oc3ccc4c(c3)OC(F)(F)O4)c2)C1=O [Example 16]
query: Please choose the item with the lower Kv3.2 Activity at 10 μM Voltage Shift (mV) value from this pair: P and Q Write down the label of the entry you select.
result: P
